The reported measurements were obtained from PubChem BioAssay (Tox21).

ASSAY_OVERVIEW: Human pregnane X receptor (PXR) small molecule agonists, qHTS cell viability counter screen (AID 1346977); note: nearly all actives have a fitted effect of over 50% in size
RUN_CONDITIONS: PXR-Luc HepG2 viability, CellTiter-Fluor, 24 h; series mostly up to 92.4 µM
Results filed as inconclusive are left out. Active and inactive are the calls of the source. Calls come from the whole dose curve; as a rule, active = well fitted cell-killing curve with a large enough effect in the repeat runs; inconclusive = weak or mixed curves, or effect the other way; inactive = flat fitted curve, though single readings scatter.
The reply should name one outcome from label 1 (active), label 0 (inactive)

O=S(=O)(C(Cl)(Cl)Cl)C(Cl)(Cl)Cl : label 1
OC(Cc1ccccc1Cl)(Cn1[nH]cnc1=S)C1(Cl)CC1 (centres undefined) : label 0
Cc1cc(C(C)(C)c2ccc(O)c(C)c2)ccc1O : label 1

# outcome recorded in this test, key = Cc1ccc(N(SC(F)(Cl)Cl)S(=O)(=O)N(C)C)cc1
label 1

# outcome recorded in this test, key = O=C1C(I)=CC(=C(c2cc(I)c(O)c(I)c2)c2ccccc2C(=O)O)C=C1I
label 0

###

ASSAY_OVERVIEW: qHTS RealTime-Glo MT Cell Viability Assay in HepG2 cells - 40 hour (AID 1224870); note: nearly all actives have a fitted effect of over 50% in size
RUN_CONDITIONS: RealTime-Glo luminescence; series mostly up to 76.8 µM
Records with an inconclusive call do not appear. Calls of active or inactive are those of the source. Calls follow the shape of the dose curve; as a rule, active = well fitted cell-killing curve with a large enough effect in the repeat runs; inconclusive = weak or mixed curves, or effect the other way; inactive = flat fitted curve, though single readings scatter.
The reply should name one outcome from active, inactive

Before answering, review these 10 worked examples.
O=[N+]([O-])c1c(Cl)c(Cl)cc(Cl)c1Cl : inactive
O=C(c1ccccc1)C(Cl)Cl : inactive
N#Cc1cc([N+](=O)[O-])ccc1N : inactive
Clc1ccccc1-c1ccccc1Cl : inactive
CCOC(=O)C(O)(c1ccc(Cl)cc1)c1ccc(Cl)cc1 : inactive
CN1CSC(=S)N(C)C1 : active
CNC(=O)Oc1cc(C)c(SC)c(C)c1 : inactive
O=S(=O)(C(Cl)(Cl)Cl)C(Cl)(Cl)Cl : active
Oc1c(I)cc(I)cc1I : inactive
c1ccc2c(c1)Sc1ccccc1N2CC1CN2CCC1CC2 (stereo not drawn) : active

# outcome recorded in this test, key = Cc1ccc(N(SC(F)(Cl)Cl)S(=O)(=O)N(C)C)cc1
active

# outcome recorded in this test, key = CO/C=C(/C(=O)OC)c1ccccc1Oc1cc(Oc2ccccc2C#N)ncn1
inactive

# outcome recorded in this test, key = Cc1cc(C(C)(C)c2ccc(O)c(C)c2)ccc1O
inactive

###

ASSAY_OVERVIEW: Caspase-3/7 induction in CHO-K1 cells by small molecules, qHTS cell viability counter screen (AID 1346979); note: nearly all actives have a fitted effect of over 35% in size
RUN_CONDITIONS: CellTiter-Fluor fluorescence, 17 h; series mostly up to 92.4 µM
Records with an inconclusive call do not appear. Activity calls are given as the source filed them. Calls come from the whole dose curve; as a rule, active = well fitted cell-killing curve with a large enough effect in the repeat runs; inconclusive = weak or mixed curves, or effect the other way; inactive = no such curve, though single readings can be large or run the other way.
The reply should name one outcome from active, inactive

Before answering, review these 4 worked examples.
O=[N+]([O-])c1c(Cl)c(Cl)cc(Cl)c1Cl : inactive
Clc1ccccc1-c1ccccc1Cl : inactive
CC(c1ccccc1)(c1ccc(O)cc1)c1ccc(O)cc1 : active
CC1COC(Cn2cncn2)(c2ccc(Oc3ccc(Cl)cc3)cc2Cl)O1 (configuration not stated) : active

# outcome recorded in this test, key = O=C(c1ccccc1)C(Cl)Cl
active

# outcome recorded in this test, key = Cc1nnc2n1-c1sc(CCc3ccc(CC(C)C)cc3)cc1C(c1ccccc1Cl)=NC2C (configuration not stated)
active

# outcome recorded in this test, key = Cc1ccc2nc3sc(=O)sc3nc2c1
active

# outcome recorded in this test, key = C[C@]12CC[C@@H](O)C[C@@H]1CC[C@@H]1[C@@H]2CC[C@]2(C)C(=O)CC[C@@H]12
active

# outcome recorded in this test, key = c1ccc2c(c1)Sc1ccccc1N2CC1CN2CCC1CC2 (configuration not stated)
active

# outcome recorded in this test, key = CNC(=O)Oc1cc(C)c(SC)c(C)c1
active

# outcome recorded in this test, key = Nc1ccc([N+](=O)[O-])cc1
active

# outcome recorded in this test, key = CO/C=C(/C(=O)OC)c1ccccc1Oc1cc(Oc2ccccc2C#N)ncn1
active
